Each entry below carries its reported Population Tubulin-Different-Phenotype (%).
# Test system: Fibroblast
# EXPERIMENT_SUMMARY: Multiplex assay against human fibroblast
# Assay type: toxicity, cell-based
# SETUP_CONDITIONS: 12 h, 10 µM, compound concentration 10 uM, replicate 1
MEASURED_METRIC: Population Tubulin-Different-Phenotype (%)

COMPOUND | TEST_VALUE
C[C@@H]1C[C@H]2[C@@H]3CCC4=CC(=O)C=C[C@]4(C)[C@@]3(F)[C@@H](O)C[C@]2(C)[C@@]1(O)C(=O)CO [DEXAMETHASONE] | 22
Oc1c(CN2CCN(c3ccccn3)CC2)cc(Cl)c2cccnc12 | 67
C[C@H](NC(=O)c1c(C(F)F)nn(C)c1Oc1cccc(C(F)(F)F)c1)c1ccc(C(=O)O)cc1 [PALUPIPRANT] | 45
O=C1COc2nccc(-c3ccccc3F)c2CN1Cc1cc(C(F)(F)F)cc(C(F)(F)F)c1 | 66
CCCC(CCC)C(=O)O [VALPROIC ACID] | 16
Cc1nc2ccc(Oc3ccc(F)cc3)cc2c(=O)n1C[C@H]1CCCN(C(C)C)C1.Cl | 88
CSc1ccccc1N1CCN(CCCCCC(=O)NC2CCCc3ccccc32)CC1.Cl (stereo not given) | 95
CCNC1(C(N)=O)CCN(c2ncnc3c2nc(-c2ccccc2Cl)n3-c2ccc(Cl)cc2)CC1 [OTENABANT] | 90
O=S(=O)(c1ccccc1)c1cnc2c(N3CCNCC3)cccc2c1 [INTEPIRDINE] | 44
N#Cc1c(N)nc(SCc2csc(-c3ccc(Cl)cc3)n2)c(C#N)c1-c1ccc(OCCO)cc1 [CAPADENOSON] | 80
O=C(O)Cc1ccccc1Nc1c(Cl)cccc1Cl [DICLOFENAC] | 24
O=C(O)c1cc2ccccc2c(Cc2c(O)c(C(=O)O)cc3ccccc23)c1O [PAMOIC ACID] | 23
COc1cc(NC(=O)CCN2CCC(OC(=O)Nc3ccccc3-c3ccccc3)CC2)c(Cl)cc1CNC[C@H](O)c1ccc(O)c2[nH]c(=O)ccc12 [BATEFENTEROL] | 63
CNC[C@H](O)c1ccc(O)c(O)c1 [EPINEPHRINE] | 23
Cl.Clc1ccc2nsnc2c1NC1=NCCN1 [TIZANIDINE HYDROCHLORIDE] | 29

---

# Tested on: Fibroblast
# EXPERIMENT_SUMMARY: Multiplex assay against human fibroblast
# Type: toxicity, cell-based
# SETUP_CONDITIONS: 48 h, 10 µM, compound concentration 10 uM, replicate 2
Classification field: Condition met = Population Hoechst High Intensity Objects (%) at or over 3%; Condition not met = Population Hoechst High Intensity Objects (%) under 3%.

STRUCTURE_SMILES_STRING | STUDY_TARGET | LABEL_VALUE
COc1cc(NC(=O)CCN2CCC(OC(=O)Nc3ccccc3-c3ccccc3)CC2)c(Cl)cc1CNC[C@H](O)c1ccc(O)c2[nH]c(=O)ccc12 | Fibroblast | Condition not met
COc1c(C)cc(NC(=O)c2nn(Cc3ccc(F)cc3)c3c2CN(C(=O)c2ccc[nH]2)C[C@]3(C)C(N)=O)cc1C | Fibroblast | Condition not met
Cc1ccc(/C(=C\CN2CCCC2)c2ccccn2)cc1 | Fibroblast | Condition met
CSCC[C@H](NC=O)C(=O)N[C@@H](CC(C)C)C(=O)N[C@@H](Cc1ccccc1)C(=O)O | Fibroblast | Condition met
N#Cc1c(N)nc(SCc2csc(-c3ccc(Cl)cc3)n2)c(C#N)c1-c1ccc(OCCO)cc1 | Fibroblast | Condition not met
Cc1ccc(F)cc1C(=O)Nc1ccc(C(=O)N2Cc3cccn3Cc3ccccc32)c(Cl)c1 | Fibroblast | Condition met
CCCC(CCC)C(=O)O | Fibroblast | Condition met
CCNC1(C(N)=O)CCN(c2ncnc3c2nc(-c2ccccc2Cl)n3-c2ccc(Cl)cc2)CC1 | Fibroblast | Condition not met
C[C@H](NC(=O)c1c(C(F)F)nn(C)c1Oc1cccc(C(F)(F)F)c1)c1ccc(C(=O)O)cc1 | Fibroblast | Condition met
CN(C)c1ccnc2sc3c(=O)n(N4CCCCCC4)cnc3c12 | Fibroblast | Condition met
